Where these numbers come from: patent US10759751B2

- Subject of test: human muscarinic M1 receptor (Homo sapiens, UniProt P11229)
- Sequence (P11229 1-460): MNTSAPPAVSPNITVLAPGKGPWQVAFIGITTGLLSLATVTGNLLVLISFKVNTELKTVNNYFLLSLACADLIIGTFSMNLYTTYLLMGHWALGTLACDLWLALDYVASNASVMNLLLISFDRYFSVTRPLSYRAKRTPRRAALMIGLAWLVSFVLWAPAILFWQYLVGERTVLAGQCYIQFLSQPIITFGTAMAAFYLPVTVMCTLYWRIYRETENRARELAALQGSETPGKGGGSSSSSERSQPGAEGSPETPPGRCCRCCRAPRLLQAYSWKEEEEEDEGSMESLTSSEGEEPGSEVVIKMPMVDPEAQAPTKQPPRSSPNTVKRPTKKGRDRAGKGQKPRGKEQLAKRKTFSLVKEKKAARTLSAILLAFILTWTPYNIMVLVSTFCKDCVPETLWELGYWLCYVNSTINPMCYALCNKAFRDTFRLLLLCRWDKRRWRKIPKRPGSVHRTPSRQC
- Assay info: Alphascreen Surefire phospho-ERK1/2 functional assay, M1
- Type: cell-based
- Recorded conditions: CHO, read-out: M1 % Emax cf. ACh, CHO cells stably expressing human M1; Emax relative to ACh
Property measured: Emax (%)

molecule="COc1ccc2c(c1)C1(CCC(N3CCC[C@@H](c4nc(C)no4)C3)CC1)C(=O)N2 (single isomer, unassigned) [22-2 Isomer 1]" result=55
molecule="C/C=C/C(=O)N1CCCN(C2CCC3(CC2)C(=O)Nc2ccccc23)CC1 (single isomer, unassigned) [4-4 isomer 2]" result=48
molecule="CCOC(=O)N1CCC2CN(C3CCC(C#N)(c4ccccc4)CC3)CC21 (single isomer, unassigned) [15-1 Isomer 2]" result=117
molecule="N#CC1(c2ccccc2)CCC(N2CC3(CC(c4nc(C(F)(F)F)no4)C3)C2)CC1 (single isomer, unassigned) [20-1 Isomer 2]" result=78
molecule="CCOC(=O)N[C@H]1CCN(C2CCC(C#N)(c3cccc(C)c3)CC2)C1 (single isomer, unassigned) [1-9 Isomer 2]" result=99
molecule="CCOC(=O)N1CCCN(C2CCC(C#N)(c3cccc(F)c3)CC2)CC1 (mixture of isomers) [3-2 mixture of isomers]" result=96

1 = CCOC(=O)N[C@H]1CCN(C2CCC3(CC2)C(=O)Nc2ccc(OC)nc23)C1 (single isomer, unassigned) [2-20 isomer 1]
2 = CCOC(=O)N1CC2(CCN(C3CCC(C#N)(c4ccccc4)CC3)CC2)C1 (single isomer, unassigned) [11-1 Isomer 2]
Asked: Identify the item whose Emax is the smaller number: 1 or 2 Use the label to indicate which entry you chose.
Given back: 1
(1: 32%, 2: 105%)
